Molecular target: cofactor-independent phosphoglycerate mutase (iPGM), Brugia malayi / Caenorhabditis elegans
Assay: nematode iPGM enzyme inhibitors, biochemical, cofactor-independent, HTS (AID 743230)
Conditions: recombinant nematode iPGM, coupled NADH absorbance decline
pIC50: −log10 of the molar value.
measured attribute: pIC50

1: Nc1cc2cccnc2c2ncccc12
2: CCc1cc2c[n+](C3CCCCC3)sc2s1
Endpoint returns the identifier whose pIC50 is numerically larger, either 1 or 2 . Your answer should be the label attached to the chosen record.
2
(2: 4.98, 1: 4.42)
